Provenance of the data: patent US4333947A

Entries and their LD50
Assay: acute toxicity, i.v., female mice of NMRI-Strain
Conditions: mouse, in vivo, iv

{"columns": ["Structure Notation", "LD50 / mg/kg"],
 "data": [
  ["Cc1[nH]cnc1C=Cc1c(Cl)cccc1Cl", 100],
  ["Cc1cccc(CC=Cc2c[nH]cn2)c1C", 75],
  ["Clc1cccc(Cl)c1C=Cc1c[nH]cn1", 85],
  ["Cc1[nH]cnc1C=Cc1ccccc1Cl", 85],
  ["Cc1cccc(C)c1CCCC=Cc1c[nH]cn1", 40],
  ["Cc1cccc(C)c1CC=Cc1c[nH]cn1", 75],
  ["Cc1cccc(C)c1/C=C/c1c[nH]cn1", 50]
]}
